I'd appreciate it if you could supply IC50 values for the items below.
Assayed Target: B-Raf (V600E) (Homo sapiens (Human), UniProt P15056, V600E)
Sequence (P15056 whole entry V600E): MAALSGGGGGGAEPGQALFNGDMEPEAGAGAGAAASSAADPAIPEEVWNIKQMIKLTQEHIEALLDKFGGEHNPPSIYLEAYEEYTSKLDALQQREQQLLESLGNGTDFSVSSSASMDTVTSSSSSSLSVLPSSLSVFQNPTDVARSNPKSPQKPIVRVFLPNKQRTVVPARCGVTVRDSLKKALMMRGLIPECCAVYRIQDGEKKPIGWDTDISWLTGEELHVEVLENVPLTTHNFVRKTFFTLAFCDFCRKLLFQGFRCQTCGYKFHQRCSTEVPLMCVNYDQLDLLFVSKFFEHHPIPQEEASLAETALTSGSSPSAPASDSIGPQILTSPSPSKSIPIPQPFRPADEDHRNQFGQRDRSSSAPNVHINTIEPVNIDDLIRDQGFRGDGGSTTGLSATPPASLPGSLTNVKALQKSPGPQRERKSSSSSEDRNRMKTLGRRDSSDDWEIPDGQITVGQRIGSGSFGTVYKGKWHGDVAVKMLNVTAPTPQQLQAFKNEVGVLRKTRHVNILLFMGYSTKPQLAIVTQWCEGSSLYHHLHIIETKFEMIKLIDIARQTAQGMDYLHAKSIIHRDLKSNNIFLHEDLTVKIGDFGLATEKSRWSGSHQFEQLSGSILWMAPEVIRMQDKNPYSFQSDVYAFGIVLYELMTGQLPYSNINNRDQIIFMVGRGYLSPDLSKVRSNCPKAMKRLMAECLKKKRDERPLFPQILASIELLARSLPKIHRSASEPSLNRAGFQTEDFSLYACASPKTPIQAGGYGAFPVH
Test: Raf kinase assay (B-Raf (V600E)), [33P] incorporation into MEK1(K97R)
Type: biochemical
Provide only the numeric value, understood in nM.

The molecule listed as COc1cc(-c2ccc3ncnc(Nc4cccc(N)c4)c3c2)ccc1O has a reported IC50 of 849

The molecule listed as COc1cc(-c2ccc3ncnc(Nc4ccccc4O)c3c2)ccc1O has a reported IC50 of 377

The molecule listed as COc1ccc(-c2ccc3ncnc(Nc4cccc5[nH]ncc45)c3c2)cc1Cl has a reported IC50 of 240

The molecule listed as Fc1ccc(-c2ccc3ncnc(Nc4cccc5[nH]ncc45)c3c2)cc1F has a reported IC50 of 209

The molecule listed as COc1cc(-c2ccc3ncnc(Nc4c(F)ccc5[nH]ncc45)c3c2)ccc1O has a reported IC50 of 268

The molecule listed as COc1cc(-c2ccc3ncnc(Nc4ccc5c(c4)OCO5)c3c2)ccc1O has a reported IC50 of 707

The molecule listed as COc1cc(-c2ccc3ncnc(Nc4cc(O)c(C)cc4F)c3c2)ccc1O has a reported IC50 of 81.7

The molecule listed as Oc1cc(Nc2ncnc3ccc(-c4ccc(Cl)cc4)cc23)c(F)cc1F has a reported IC50 of 19

The molecule listed as CN(C)c1ccc(-c2ccc3ncnc(Nc4cccc(O)c4)c3c2)cc1 has a reported IC50 of 292

The molecule listed as COc1cc(-c2ccc3ncnc(Nc4ccc(F)c(O)c4F)c3c2)ccc1O has a reported IC50 of 4.5

The molecule listed as COc1cccc(-c2ccc3ncnc(Nc4cccc(O)c4)c3c2)c1 has a reported IC50 of 139

The molecule listed as c1cc(Nc2ncnc3ccc(-c4ccc5[nH]ncc5c4)cc23)c2cn[nH]c2c1 has a reported IC50 of 236

The molecule listed as Oc1cccc(Nc2ncnc3ccc(-c4cccc(O)c4)cc23)c1 has a reported IC50 of 51.7

The molecule listed as COc1cc(-c2ccc3ncnc(Nc4ccc(Cl)cc4O)c3c2)ccc1O has a reported IC50 of 1360

The molecule listed as COc1ccc(-c2ccc3nccc(Nc4cccc5[nH]ncc45)c3c2)cc1OC has a reported IC50 of 291

The molecule listed as CS(=O)(=O)Nc1ccc(-c2ccc3ncnc(Nc4cccc5[nH]ncc45)c3c2)cc1 has a reported IC50 of 487

The molecule listed as COc1cc(-c2ccc3ncnc(Nc4cccc([N+](=O)[O-])c4)c3c2)ccc1O has a reported IC50 of 675

The molecule listed as Oc1ccc(-c2ccc3ncnc(Nc4ccccc4)c3c2)cc1 has a reported IC50 of 4870

The molecule listed as COc1cccc(-c2ccc3ncnc(Nc4ccccc4)c3c2)c1 has a reported IC50 of 3390

The molecule listed as Oc1ccc(-c2ccc3nccc(Nc4cccc5[nH]ncc45)c3c2)cc1 has a reported IC50 of 185

The molecule listed as CCS(=O)(=O)Nc1cccc(-c2ccc3ncnc(Nc4cccc5[nH]ncc45)c3c2)c1 has a reported IC50 of 244

The molecule listed as c1cc(Nc2ncnc3ccc(-c4ccc5c(c4)OCO5)cc23)c2cn[nH]c2c1 has a reported IC50 of 161

The molecule listed as FC(F)(F)c1cccc(-c2ccc3ncnc(Nc4cccc5[nH]ncc45)c3c2)c1 has a reported IC50 of 371

The molecule listed as COc1ccc(-c2ccc3nccc(Nc4cccc5[nH]ncc45)c3c2)cc1F has a reported IC50 of 207

The molecule listed as NC(=O)c1cccc(-c2ccc3ncnc(Nc4cccc5[nH]ncc45)c3c2)c1 has a reported IC50 of 151

The molecule listed as Nc1ccc(-c2ccc3nccc(Nc4cccc5[nH]ncc45)c3c2)cc1 has a reported IC50 of 284

The molecule listed as Oc1cccc(-c2ccc3nccc(Nc4cccc5[nH]ncc45)c3c2)c1 has a reported IC50 of 359

The molecule listed as COc1cc(-c2cc3c(Nc4cccc(O)c4)ncnc3cc2OC)ccc1O has a reported IC50 of 94

The molecule listed as COc1cc(-c2ccc3ncnc(Nc4cccc5[nH]nc(Cl)c45)c3c2)ccc1O has a reported IC50 of 162

The molecule listed as Oc1cccc(Nc2ncnc3ccc(-c4ccccc4)cc23)c1 has a reported IC50 of 254

The molecule listed as Oc1cccc(-c2ccc3ncnc(Nc4cccc5[nH]ncc45)c3c2)c1 has a reported IC50 of 357

The molecule listed as COc1cc(-c2ccc3nccc(Nc4cccc5[nH]ncc45)c3c2)ccc1O has a reported IC50 of 211

The molecule listed as CS(=O)(=O)c1ccc(-c2ccc3ncnc(Nc4cccc5[nH]ncc45)c3c2)cc1 has a reported IC50 of 273

The molecule listed as COc1ccc(-c2ccc3ncnc(Nc4cccc5[nH]ncc45)c3c2)cc1C has a reported IC50 of 736

The molecule listed as COc1cc(-c2ccc3ncnc(Nc4cccc(C(F)(F)F)c4)c3c2)ccc1O has a reported IC50 of 1170

---

Assayed Target: C-Raf (Homo sapiens (Human), UniProt P04049)
Sequence (P04049 whole entry): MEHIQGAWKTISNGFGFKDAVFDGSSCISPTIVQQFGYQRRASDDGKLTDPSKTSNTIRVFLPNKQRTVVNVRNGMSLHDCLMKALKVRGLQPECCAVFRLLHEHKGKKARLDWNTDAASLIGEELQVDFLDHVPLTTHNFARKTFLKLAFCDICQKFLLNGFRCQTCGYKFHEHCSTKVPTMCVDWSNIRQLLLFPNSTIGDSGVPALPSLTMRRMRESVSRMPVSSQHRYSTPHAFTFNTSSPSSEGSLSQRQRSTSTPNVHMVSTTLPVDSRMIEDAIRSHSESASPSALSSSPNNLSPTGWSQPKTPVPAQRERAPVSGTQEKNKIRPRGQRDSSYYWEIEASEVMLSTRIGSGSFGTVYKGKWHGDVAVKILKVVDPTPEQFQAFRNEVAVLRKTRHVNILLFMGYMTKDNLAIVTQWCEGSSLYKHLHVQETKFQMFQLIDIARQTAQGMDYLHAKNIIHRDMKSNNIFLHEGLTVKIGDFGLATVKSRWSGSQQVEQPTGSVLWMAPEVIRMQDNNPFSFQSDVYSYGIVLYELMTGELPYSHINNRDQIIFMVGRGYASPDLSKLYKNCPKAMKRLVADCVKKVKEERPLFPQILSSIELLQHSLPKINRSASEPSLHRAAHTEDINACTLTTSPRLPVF
Test: Raf kinase assay (C-Raf), [33P] incorporation into MEK1(K97R)
Type: biochemical
With a cut-off of 1000 nM, any IC50 strictly below it is called rule met; any IC50 meeting it or above is called rule not met.

Challenge: Please let me know if COc1cc(-c2ccc3ncnc(Nc4cccc(F)c4)c3c2)ccc1O [Compound 52] shows IC50 below 1000 nM.
Response given: rule not met

Challenge: Please let me know if COc1ccc(-c2ccc3ncnc(Nc4cccc5[nH]ncc45)c3c2)c(C)c1 [Compound 77] shows IC50 below 1000 nM.
Response given: rule not met

Challenge: Please let me know if N#Cc1cccc(-c2ccc3nccc(Nc4cccc5[nH]ncc45)c3c2)c1 [Compound 114] shows IC50 below 1000 nM.
Response given: rule met

Challenge: Please let me know if Fc1cccc(-c2ccc3ncnc(Nc4cccc5[nH]ncc45)c3c2)c1 [Compound 81] shows IC50 below 1000 nM.
Response given: rule met

Challenge: Please let me know if COc1cc(-c2ccc3nccc(Nc4cccc(O)c4)c3c2)ccc1O [Compound 100] shows IC50 below 1000 nM.
Response given: rule met

Challenge: Please let me know if Nc1ccc(-c2ccc3nccc(Nc4cccc5[nH]ncc45)c3c2)cc1 [Compound 121] shows IC50 below 1000 nM.
Response given: rule met

Challenge: Please let me know if COc1cc(-c2ccc3ncnc(Nc4cccc5c4cnn5C)c3c2)ccc1O [Compound 99] shows IC50 below 1000 nM.
Response given: rule not met

Challenge: Please let me know if COc1cccc(-c2ccc3nccc(Nc4cccc5[nH]ncc45)c3c2)c1 [Compound 123] shows IC50 below 1000 nM.
Response given: rule met

Challenge: Please let me know if COc1cc(-c2ccc3ncnc(Nc4ccccc4)c3c2)ccc1O [Compound 1] shows IC50 below 1000 nM.
Response given: rule not met

Challenge: Please let me know if COc1cc(-c2ccc3ncnc(Nc4cc(O)c(C)cc4F)c3c2)ccc1O [Compound 156] shows IC50 below 1000 nM.
Response given: rule met

Challenge: Please let me know if COc1cc(-c2ccc3ncnc(Nc4ccc(F)c(Cl)c4)c3c2)ccc1O [Compound 14] shows IC50 below 1000 nM.
Response given: rule not met

Challenge: Please let me know if COc1cc(-c2ccc3ncnc(Nc4ccc(O)cc4)c3c2)ccc1O [Compound 19] shows IC50 below 1000 nM.
Response given: rule met

Challenge: Please let me know if CS(=O)(=O)Nc1cccc(-c2ccc3ncnc(Nc4cccc5[nH]ncc45)c3c2)c1 [Compound 95] shows IC50 below 1000 nM.
Response given: rule not met

Challenge: Please let me know if COc1cccc(-c2ccc3nccc(Nc4cccc5[nH]ncc45)c3c2)c1 [Compound 146] shows IC50 below 1000 nM.
Response given: rule not met

Challenge: Please let me know if COc1cc(-c2ccc3ncnc(Nc4cccc(C(F)(F)F)c4)c3c2)ccc1O [Compound 18] shows IC50 below 1000 nM.
Response given: rule not met

Challenge: Please let me know if COc1cccc(-c2ccc3ncnc(Nc4cccc5[nH]ncc45)c3c2)c1 [Compound 144] shows IC50 below 1000 nM.
Response given: rule not met

Challenge: Please let me know if COc1cc(-c2ccc3ncnc(Nc4ccc(F)cc4)c3c2)ccc1O [Compound 15] shows IC50 below 1000 nM.
Response given: rule not met

Challenge: Please let me know if COc1cc(-c2ccc3ncnc(Nc4ccc5c(c4)OCO5)c3c2)ccc1O [Compound 38] shows IC50 below 1000 nM.
Response given: rule not met

Challenge: Please let me know if COc1cc(-c2ccc3ncnc(Nc4cccc5[nH]nnc45)c3c2)ccc1O [Compound 82] shows IC50 below 1000 nM.
Response given: rule not met

Challenge: Please let me know if COc1cccc(-c2ccc3ncnc(Nc4ccccc4)c3c2)c1 [Compound 3] shows IC50 below 1000 nM.
Response given: rule not met

Challenge: Please let me know if COc1cc(-c2ccc3ncnc(Nc4ccc(F)c(O)c4)c3c2)ccc1O [Compound 161] shows IC50 below 1000 nM.
Response given: rule met

Challenge: Please let me know if COc1cc(-c2ccc3ncnc(Nc4cc(O)c(F)cc4F)c3c2)ccc1O [Compound 158] shows IC50 below 1000 nM.
Response given: rule met

Challenge: Please let me know if COc1cc(-c2ccc3ncnc(Nc4cc(NS(C)(=O)=O)ccc4F)c3c2)ccc1O [Compound 129] shows IC50 below 1000 nM.
Response given: rule not met

Challenge: Please let me know if COc1cc(-c2ccc3ncnc(Nc4cccc([N+](=O)[O-])c4)c3c2)ccc1O [Compound 36] shows IC50 below 1000 nM.
Response given: rule not met

Hey, just so you know, these numbers are from patent US8785459B2.
